system: Calu-3; assay: cell viability relative to DMSO; higher = less toxic; settings: 72 h; 100 nM
observed-property: cell viability (%)
Kindly provide the numeric value in % only, without the unit symbol.

* S=C(S)OC1CC2CC1C1CCCC21 (stereo unspecified) | 104

GET /values?readout=cell viability&system=Calu-3&item= Cc1ccc(NC(=O)c2cccc(N(C)C)c2)cc1NC(=O)c1ccc(O)cc1
91.7

Form entry - test system: Calu-3; read-out: cell viability; compound: CN(C)C(=N)NCCC[C@H](N)C(=O)O
112

Request: cell viability, test system Calu-3, entry Cc1c(OCC(F)(F)F)ccnc1C[S+]([O-])c1nc2ccccc2[nH]1 (stereo unspecified)
95.1

Could you share what cell viability was measured for O=C1NC(=O)C(c2ccccc2[N+](=O)[O-])=C1Nc1ccc(O)c(Cl)c1 , tested on Calu-3?
94.4

I'm curious: which cell viability was measured for CC(C)=CCC/C(C)=C/CNCCNC1C2CC3CC(C2)CC1C3 (stereo unspecified) tested on Calu-3?
106

Record O=C(O)Cn1c2c(c3cc(F)ccc31)CN(C(=O)c1cccc3ccccc13)CC2 : what is its cell viability with Calu-3?
93.1

Calu-3 / cell viability / CC(C)(C)Nc1nc(Nc2ccc(C(N)=O)cc2)cc(N)c1C#N : value?
104

Measured values drawn from the supplement of paper PMC13380429 for this set.
